# test.protocol: Cytotoxicity, tube dilution method
# Format: cell-based
# test.conditions: mouse, l-cells, YLE medium, read-out: Minimum Inhibitory Concentration, tube dilution method
readout.label: MCC at 48 h (µg/mL)

>>> df
                                   compound  reported_result
0  CC=CC(C)=CC(C)C(=O)CC(O)CC1CC(=O)NC(=O)C1 (stereo not shown) [Antibiotic TS-885]              0.5

###

# test.protocol: Cytotoxicity, cylinder method
# Type: cell-based
# test.conditions: human, hela s3 cells, YLE medium, read-out: Minimum Inhibitory Concentration, cylinder method
readout.label: MCC at 48 h

>>> print(df.to_string())
                                   compound  reported_result
0  CC=CC(C)=CC(C)C(=O)CC(O)CC1CC(=O)NC(=O)C1 (stereo not shown) [Antibiotic TS-885]        0.2 µg/mL

Reference source for all entries: patent US3988462A
